Molecular target: T1, human NPRA (human, UniProt P16066 33-1061)
T1 sequence (looked up): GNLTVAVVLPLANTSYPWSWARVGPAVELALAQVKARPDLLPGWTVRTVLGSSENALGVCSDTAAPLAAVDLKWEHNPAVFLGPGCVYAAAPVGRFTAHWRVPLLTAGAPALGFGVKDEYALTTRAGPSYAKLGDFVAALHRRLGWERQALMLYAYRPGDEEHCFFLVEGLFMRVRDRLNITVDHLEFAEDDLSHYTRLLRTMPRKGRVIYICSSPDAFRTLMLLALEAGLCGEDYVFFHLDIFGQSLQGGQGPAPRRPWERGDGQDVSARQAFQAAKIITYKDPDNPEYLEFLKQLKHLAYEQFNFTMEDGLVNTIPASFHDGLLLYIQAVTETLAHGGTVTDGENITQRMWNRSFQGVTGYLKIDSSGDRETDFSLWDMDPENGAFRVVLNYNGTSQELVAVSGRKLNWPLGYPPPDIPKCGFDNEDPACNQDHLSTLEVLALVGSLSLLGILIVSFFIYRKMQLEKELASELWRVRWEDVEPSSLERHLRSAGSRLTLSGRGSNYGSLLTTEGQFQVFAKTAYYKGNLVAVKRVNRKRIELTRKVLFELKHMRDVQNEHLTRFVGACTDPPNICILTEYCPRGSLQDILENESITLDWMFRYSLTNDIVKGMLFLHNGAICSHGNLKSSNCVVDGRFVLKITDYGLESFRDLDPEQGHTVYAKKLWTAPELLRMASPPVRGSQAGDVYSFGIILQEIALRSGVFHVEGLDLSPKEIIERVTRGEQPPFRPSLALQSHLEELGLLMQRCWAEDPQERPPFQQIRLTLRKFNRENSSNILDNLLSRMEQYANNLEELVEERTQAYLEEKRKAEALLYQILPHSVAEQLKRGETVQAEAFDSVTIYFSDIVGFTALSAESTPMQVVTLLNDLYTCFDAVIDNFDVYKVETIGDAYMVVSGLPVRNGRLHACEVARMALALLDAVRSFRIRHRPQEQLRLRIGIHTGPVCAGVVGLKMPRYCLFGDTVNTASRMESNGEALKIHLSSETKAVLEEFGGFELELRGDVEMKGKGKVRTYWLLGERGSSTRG
Test: cell-based or functional assay
Numbered stars: 1 amine (or outer) side, 2 acyl side, 3 side chain; on linkers, the order of the positions; unused ones are H or OH. Bridge positions count the residues as written; N and C are the ends. Square brackets hold non-standard residues; d marks the D form. * marks the point of attachment. thioacetal = thioacetal linkage between two cysteines (intrachain bond at the bracketed Cys); C20 diacid = O=C(O)CCCCCCCCCCCCCCCCCCC(=O)*; γGlu = O=C(O)[C@H](CCC(=O)[*:2])N[*:1]; βAla = NCCC(=O)O
Recorded cGMP Assay (EC50, pM) w/BSA, hNPRA by entry

| binder | cGMP Assay (EC50, pM) w/BSA, hNPRA |
| --- | --- |
| SXRRSSCFGKRIDRIGHYSGLGCPSFRHGGKSSGAPPPS (N-terminus acylated with HOOC-(CH2)18-CO-(γGlu)-; (AEEA)6 after EKEKEKG; 4Pal; thioacetal linkage between the two bracketed Cys; C-terminal amide) [HOOC-(CH2)18-CO-(γGlu)-EKEKEKG-(AEEA)6-S-4Pal-RRSS[CFGKRIDRIGHYSGLGC]PSFRHGGKSSGAPPPS-NH2] | 4470 |
| EKXRSSCFGKRIDRIGHYSGLGCPSFRHGSPSSGAPPPS (N-terminus acylated with HOOC-(CH2)18-CO-(γGlu)-; PEG24 after EKEKEKG; βAla; thioacetal linkage between the two bracketed Cys; C-terminal amide) [HOOC-(CH2)18-CO-(γGlu)-EKEKEKG-PEG24-EK-βAla-RSS[CFGKRIDRIGHYSGLGC]PSFRHGSPSSGAPPPS-NH2] | 4330 |
| {C20 diacid}-[γGlu]EKEKEKGEK[βAla]RSSCFGKRIDRIGHYSGLGCPSFRHGSPSSGAPPPS-NH2 (bridge 15-31 via thioacetal) [HOOC-(CH2)18-CO-(γGlu)-EKEKEKGEK-βAla-RSS[CFGKRIDRIGHYSGLGC]PSFRHGSPSSGAPPPS-NH2] | 23700 |

Data origin, for the record: patent US20240174727A1
